Test system: CLZ3 (HCA2 human fibroblast dual HR-NHEJ reporter);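 note: compound given one day before doxycycline, which switches on I-SceI endonuclease expression to create double-strand breaks within the integrated reporter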
experimentalProtocol: HR repair efficiency (tdTomato+ cells) relative to control (log10 fold); higher = more homologous recombination
experimentalSetup: 5 µM; doxycycline 0.5 ug/mL
If the reported HR repair efficiency (log10) equals or exceeds 0.06, assign yes. If not, assign no.

A selection of reference data follows.
{"molecule": "CCCCCCCCCCCCCCCCCC(=O)OC [Methyl Stearate]", "systemName": "CLZ3 (HCA2 human fibroblast dual HR-NHEJ reporter)", "assignedLabel": "no"}
{"molecule": "O=C(OCC1=C[C@@H](O)[C@@H]2C=CO[C@@H](O[C@@H]3O[C@H](CO)[C@@H](O)[C@H](O)[C@H]3O)[C@H]12)c1ccc(O)cc1 [Agnuside]", "systemName": "CLZ3 (HCA2 human fibroblast dual HR-NHEJ reporter)", "assignedLabel": "yes"}
{"molecule": "C=C1CC[C@@H]2[C@](C)(CO)[C@H](O)CC[C@@]2(C)[C@H]1C/C=C1\\C=COC1=O [Dehydroandrographolide]", "systemName": "CLZ3 (HCA2 human fibroblast dual HR-NHEJ reporter)", "assignedLabel": "yes"}
{"molecule": "COc1cc(C[C@@H](CO[C@@H]2O[C@H](CO)[C@@H](O)[C@H](O)[C@H]2O)[C@H](CO[C@@H]2O[C@H](CO)[C@@H](O)[C@H](O)[C@H]2O)Cc2ccc(O)c(OC)c2)ccc1O [Secoisolariciresinol Diglycoside]", "systemName": "CLZ3 (HCA2 human fibroblast dual HR-NHEJ reporter)", "assignedLabel": "yes"}
{"molecule": "CC(CC(=O)C[C@@H](C)[C@H]1CC(=O)[C@@]2(C)C3=C(C(=O)[C@@H](O)[C@]12C)[C@@]1(C)CC[C@H](O)C(C)(C)[C@@H]1C[C@@H]3O)C(=O)O (some centres undefined)", "systemName": "CLZ3 (HCA2 human fibroblast dual HR-NHEJ reporter)", "assignedLabel": "yes"}

Shifting focus to the molecule that follows.
Prompt: Given `C[C@@H]1O[C@@H](Oc2c(-c3cc(O)c(O)c(O)c3)oc3cc(O)cc(O)c3c2=O)[C@H](O)[C@H](O)[C@H]1O` , state whether its HR repair efficiency (log10) is at least 0.06.
Response: no
